target: UniProtKB Q92769; test: Inhibition of human HDAC2 using human HeLa cell nuclear extract at 1 uM measured after 60 mins by fluorescence assay; format: subcellular, Nucleus
pIC50: −log10 of the molar value.

structure_smiles: Cc1noc(C)c1-c1ccc2c(c1)c(CCc1ccc(F)cc1)cn2CCCCCC(=O)NO
reading_qualifier: =
pIC50: 6.02
--
structure_smiles: Cc1noc(C)c1-c1ccc2c(c1)c(Cc1cccc(C(F)(F)F)c1)cn2CCCCCCC(=O)NO
reading_qualifier: =
pIC50: 7.10
--
structure_smiles: Cc1noc(C)c1-c1ccc2c(c1)c(Cc1ccc(F)cc1)cn2CCCCCC(=O)NO
reading_qualifier: =
pIC50: 6.29
--
structure_smiles: Cc1ccccc1CCc1cn(CCCCCC(=O)NO)c2ccc(-c3c(C)noc3C)cc12
reading_qualifier: <
pIC50: 6.00
--
structure_smiles: Cc1ccccc1Cc1cn(CCCCCCC(=O)NO)c2ccc(-c3c(C)noc3C)cc12
reading_qualifier: <
pIC50: 6.00
--
structure_smiles: Cc1noc(C)c1-c1ccc2c(c1)c(Cc1ccccc1)cn2CCCCCCC(=O)NO
reading_qualifier: =
pIC50: 6.93
--
structure_smiles: Cc1ccc(Cc2cn(CCCCCCC(=O)NO)c3ccc(-c4c(C)noc4C)cc23)cc1
reading_qualifier: =
pIC50: 6.36
--
structure_smiles: Cc1noc(C)c1-c1ccc2c(c1)c(Cc1ccc(F)cc1)cn2CCCCCCC(=O)NO
reading_qualifier: =
pIC50: 6.53
--
structure_smiles: Cc1noc(C)c1-c1ccc2c(c1)c(CCc1ccccc1)cn2CCCCCCC(=O)NO
reading_qualifier: =
pIC50: 6.86
--
structure_smiles: Cc1cccc(Cc2cn(CCCCCC(=O)NO)c3ccc(-c4c(C)noc4C)cc23)c1
reading_qualifier: =
pIC50: 6.25
--
structure_smiles: Cc1cccc(Cc2cn(CCCCCCC(=O)NO)c3ccc(-c4c(C)noc4C)cc23)c1
reading_qualifier: =
pIC50: 6.90

###

# reported IC50; entries follow
target: Histone deacetylase 2 (Homo sapiens, UniProt Q92769); experiment: Inhibition of HDAC2 (unknown origin)
Sequence (Q92769 whole entry): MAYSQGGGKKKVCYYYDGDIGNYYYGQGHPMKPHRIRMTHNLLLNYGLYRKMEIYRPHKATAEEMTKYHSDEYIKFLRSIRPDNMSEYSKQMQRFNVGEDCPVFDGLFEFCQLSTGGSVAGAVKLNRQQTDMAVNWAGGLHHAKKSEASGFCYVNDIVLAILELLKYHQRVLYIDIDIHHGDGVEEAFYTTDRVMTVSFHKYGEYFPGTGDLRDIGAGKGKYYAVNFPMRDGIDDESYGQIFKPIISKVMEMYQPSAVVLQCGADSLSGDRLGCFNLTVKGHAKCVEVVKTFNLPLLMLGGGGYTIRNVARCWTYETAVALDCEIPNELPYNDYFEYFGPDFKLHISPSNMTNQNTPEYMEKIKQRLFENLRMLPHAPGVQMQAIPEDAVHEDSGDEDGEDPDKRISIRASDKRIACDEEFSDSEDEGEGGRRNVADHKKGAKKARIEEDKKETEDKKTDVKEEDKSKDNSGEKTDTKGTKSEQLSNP

structure_smiles: Nc1ccccc1NC(=O)c1ccc(-c2cn(CCc3cccc([N+](=O)[O-])c3)nn2)s1
IC50: > 100 nM
//
structure_smiles: Nc1ccccc1NC(=O)c1ccc(-c2cn(CCc3ccsc3)nn2)cc1
IC50: > 19 nM
//
structure_smiles: Nc1ccccc1NC(=O)c1ccc(CNc2nc(-c3ccccc3)cs2)cc1
IC50: 85 nM

###

target: Histone deacetylase 2 (Homo sapiens, UniProt Q92769); assay: Inhibition of human recombinant HDAC2 using Fluor-de-Lys as substrate at 50 uM for 30 mins by fluorescence based assay

structure_smiles: Nc1ccccc1NC(=O)CCCCCCC(=O)NO
IC50 (nM): 101

###

target: Histone deacetylase 3 (Homo sapiens); test: Inhibition of human recombinant HDAC3 expressed in baculovirus by using Boc-L-Lys(Ac)-AMC as substrate measured after 24 hrs by fluorescence based analysis
Sequence (O15379 whole entry): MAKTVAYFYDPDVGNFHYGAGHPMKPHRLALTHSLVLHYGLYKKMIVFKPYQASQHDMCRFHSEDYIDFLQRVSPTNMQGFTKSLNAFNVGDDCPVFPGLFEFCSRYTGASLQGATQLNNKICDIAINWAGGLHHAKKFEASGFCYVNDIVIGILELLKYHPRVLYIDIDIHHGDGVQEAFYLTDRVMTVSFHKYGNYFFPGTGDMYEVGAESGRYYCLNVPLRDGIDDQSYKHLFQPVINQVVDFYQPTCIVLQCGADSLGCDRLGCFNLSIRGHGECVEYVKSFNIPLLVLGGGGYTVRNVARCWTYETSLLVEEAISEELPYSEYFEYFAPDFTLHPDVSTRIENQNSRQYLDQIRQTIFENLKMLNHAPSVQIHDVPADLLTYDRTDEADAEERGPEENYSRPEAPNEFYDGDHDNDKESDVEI
pIC50: −log10 of the molar value.
# reported pIC50; entries follow
reported_property: pIC50

structure_smiles: O=C(CCCCCCNCc1ccc2ccccc2c1)NO
reported_property: pIC50
reported: 7.17
--
structure_smiles: O=C(CCCCCCN(Cc1ccc(-c2ccccc2)s1)Cc1ccc(-c2ccccc2)s1)NO
reported_property: pIC50
reported: 5.96
--
structure_smiles: COc1ccc(CNCCCCCCC(=O)NO)cc1OC
reported_property: pIC50
reported: 6.74
--
structure_smiles: Cc1cc(CNCCCCCCC(=O)NO)ccc1F
reported_property: pIC50
reported: 6.72
--
structure_smiles: O=C(CCCCCCN(Cc1ccc2ccccc2c1)Cc1ccc2ccccc2c1)NO
reported_property: pIC50
reported: 6.02
--
structure_smiles: O=C(CCCCCCNCc1ccc(F)cc1)NO
reported_property: pIC50
reported: 6.62
--
structure_smiles: O=C(CCCCCCN(Cc1cc2ccccc2[nH]1)Cc1cc2ccccc2[nH]1)NO
reported_property: pIC50
reported: 5.89
--
structure_smiles: O=C(CCCCCCNCc1ccc([N+](=O)[O-])cc1)NO
reported_property: pIC50
reported: 6.00
--
structure_smiles: O=C(CCCCCCNCc1cc2ccccc2[nH]1)NO
reported_property: pIC50
reported: 7.60
--
structure_smiles: O=C(CCCCCCNCc1ccc(-c2ccccc2)s1)NO
reported_property: pIC50
reported: 7.42

###

Molecular target: Protein deacetylase HDAC6 (Homo sapiens)
Sequence (Q9UBN7 whole entry): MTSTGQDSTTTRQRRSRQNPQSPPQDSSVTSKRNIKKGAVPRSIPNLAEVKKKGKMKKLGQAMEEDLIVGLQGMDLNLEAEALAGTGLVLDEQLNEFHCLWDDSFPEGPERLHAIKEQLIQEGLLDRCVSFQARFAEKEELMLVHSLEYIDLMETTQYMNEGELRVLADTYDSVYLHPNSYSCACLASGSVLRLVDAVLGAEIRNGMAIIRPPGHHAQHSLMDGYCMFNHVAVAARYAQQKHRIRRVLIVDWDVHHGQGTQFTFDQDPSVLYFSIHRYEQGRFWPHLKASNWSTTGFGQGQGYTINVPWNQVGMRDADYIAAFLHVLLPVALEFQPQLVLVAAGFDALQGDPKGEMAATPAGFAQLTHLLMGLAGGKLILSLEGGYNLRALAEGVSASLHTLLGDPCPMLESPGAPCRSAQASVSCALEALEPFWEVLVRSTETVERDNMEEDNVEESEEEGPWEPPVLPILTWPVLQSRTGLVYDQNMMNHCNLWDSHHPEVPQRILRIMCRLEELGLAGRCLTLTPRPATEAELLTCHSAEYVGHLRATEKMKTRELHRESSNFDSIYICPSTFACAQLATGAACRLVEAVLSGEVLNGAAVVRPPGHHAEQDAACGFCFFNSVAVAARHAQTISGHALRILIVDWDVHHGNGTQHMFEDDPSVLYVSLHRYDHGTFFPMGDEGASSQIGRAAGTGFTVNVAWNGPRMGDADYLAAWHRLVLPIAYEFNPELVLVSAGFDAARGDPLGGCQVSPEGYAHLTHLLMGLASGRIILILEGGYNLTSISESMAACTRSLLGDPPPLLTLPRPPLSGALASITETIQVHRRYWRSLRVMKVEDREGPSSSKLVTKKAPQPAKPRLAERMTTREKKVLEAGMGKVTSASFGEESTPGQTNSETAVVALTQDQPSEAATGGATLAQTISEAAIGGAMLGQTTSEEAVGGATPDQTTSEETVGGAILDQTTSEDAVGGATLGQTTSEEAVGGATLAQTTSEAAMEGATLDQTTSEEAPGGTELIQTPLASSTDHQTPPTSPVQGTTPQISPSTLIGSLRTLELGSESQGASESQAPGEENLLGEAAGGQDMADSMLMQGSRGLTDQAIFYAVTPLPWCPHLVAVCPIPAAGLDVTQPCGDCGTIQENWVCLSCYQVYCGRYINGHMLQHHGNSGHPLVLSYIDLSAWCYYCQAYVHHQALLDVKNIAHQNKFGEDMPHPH
Assay: Inhibition of human recombinant HDAC6 using Fluor-de-Lys as substrate at 50 uM for 30 mins by fluorescence based assay
pIC50: −log10 of the molar value.
reported_property: pIC50

structure_smiles: Nc1ccccc1NC(=O)CCCCCCC(=O)NO
assay_target: Protein deacetylase HDAC6 (Homo sapiens)
reported: 8.00

###

target: Histone deacetylase 2 (Homo sapiens); experiment: Inhibition of human recombinant HDAC2 using fluorogenic HDAC substrate measured after 20 mins by fluorescence assay
pIC50: −log10 of the molar value.
reported_property: pIC50

structure_smiles: COc1ccccc1NC(=O)N[C@H](C(=O)Nc1ccc(C(=O)NO)cc1)c1ccccc1
reported: 7.71

###

molecular target: UniProtKB Q13547; experiment: Inhibition of human recombinant HDAC1 using Fluor-de-Lys as substrate at 50 uM for 30 mins by fluorescence based assay
reported_property: IC50 (nM)

structure_smiles: Nc1ccccc1NC(=O)CCCCCCC(=O)NO
reported_property: IC50
unit_symbol: nM
reported: 67.2

###

biological target: UniProt:O15379; test: Inhibition of human HDAC3 using fluorogenic as substrate measured after 30 mins by fluorescence based analysis
# reported IC50; entries follow

structure_smiles: O=C(NO)c1ccc(NC(=O)[C@@H](NC(=O)c2cccc(Br)c2)c2ccccc2)cc1
IC50: 8.5 nM
//
structure_smiles: COc1ccccc1NC(=O)N[C@H](C(=O)Nc1ccc(C(=O)NO)cc1)c1ccccc1
IC50: 5.9 nM
//
structure_smiles: O=C(NO)c1ccc(NC(=O)[C@@H](NC(=O)c2ccc3ccccc3c2)c2ccccc2)cc1
IC50: 16.8 nM
//
structure_smiles: CN(C)c1cccc2c(S(=O)(=O)N[C@H](C(=O)Nc3ccc(C(=O)NO)cc3)c3ccccc3)cccc12
IC50: 24.4 nM

###

biological target: Histone deacetylase 1 (Homo sapiens, UniProt Q13547); assay: Inhibition of human HDAC1 by fluorescence based assay method
Sequence (Q13547 whole entry): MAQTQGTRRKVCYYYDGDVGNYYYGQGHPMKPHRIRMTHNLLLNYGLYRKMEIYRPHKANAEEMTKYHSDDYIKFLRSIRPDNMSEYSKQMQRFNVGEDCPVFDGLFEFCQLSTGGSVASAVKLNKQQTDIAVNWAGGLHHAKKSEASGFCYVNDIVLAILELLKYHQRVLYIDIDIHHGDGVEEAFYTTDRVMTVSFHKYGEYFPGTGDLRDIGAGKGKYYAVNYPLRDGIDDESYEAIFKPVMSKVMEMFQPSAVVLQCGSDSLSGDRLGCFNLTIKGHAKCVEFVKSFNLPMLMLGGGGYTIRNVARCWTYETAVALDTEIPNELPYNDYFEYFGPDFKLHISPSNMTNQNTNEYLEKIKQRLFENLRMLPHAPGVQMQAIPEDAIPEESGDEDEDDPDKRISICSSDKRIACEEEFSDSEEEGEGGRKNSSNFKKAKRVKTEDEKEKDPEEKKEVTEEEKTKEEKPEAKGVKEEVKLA
pIC50: −log10 of the molar value.
reported_property: pIC50

structure_smiles: Nc1ccccc1NC(=O)c1ccc(CNc2nc(-c3ccccc3)c(-c3ccccc3)o2)cc1
assay_target: Histone deacetylase 1 (Homo sapiens, UniProt Q13547)
reported: 8.22
